tgt: human MC5R (Homo sapiens, UniProt P33032)
Construct: purchased Perkin Elmer RBXMC5M400UA
Sequence (P33032 whole entry): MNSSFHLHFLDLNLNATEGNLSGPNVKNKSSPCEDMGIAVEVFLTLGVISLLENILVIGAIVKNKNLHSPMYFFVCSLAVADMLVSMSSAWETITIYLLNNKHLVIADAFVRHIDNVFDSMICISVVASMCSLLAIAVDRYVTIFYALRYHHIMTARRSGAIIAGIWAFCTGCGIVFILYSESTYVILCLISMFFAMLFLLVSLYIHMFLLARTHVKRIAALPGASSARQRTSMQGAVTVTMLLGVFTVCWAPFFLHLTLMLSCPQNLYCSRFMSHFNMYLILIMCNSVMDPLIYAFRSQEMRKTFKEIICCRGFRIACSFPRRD
experimental-details: Human MC5R radioligand binding assay ([125I] NDP-MSH displacement, hMC5R membranes)
condition-info: hMC5R assay as in Example 102; compounds tested as trifluoroacetate or hydrochloride salts, or as free base
pIC50: −log10 of the molar value.
experimental-endpoint: pIC50

Give pIC50 (human MC5R (Homo sapiens, UniProt P33032)) of the following molecule: Cc1ccc(/C=C/C(=O)NC[C@@H]2CCN(CC(c3ccccc3)c3ccccc3)C(=O)[C@H](CCCNC(=N)N)N2)cc1 [Compound 171]
> 7.00
